Each entry below carries its reported pKd.
Target: T1, Human IL-18BP (amino acids 31-194), biotinylated (human, UniProt O95998 31-194, biotin on the AviTag (BirA ligase) where used biotinylated)
T1 construct: Soluble decoy receptor; also called hIL-18BP; recombinant IL-18BP
T1 sequence: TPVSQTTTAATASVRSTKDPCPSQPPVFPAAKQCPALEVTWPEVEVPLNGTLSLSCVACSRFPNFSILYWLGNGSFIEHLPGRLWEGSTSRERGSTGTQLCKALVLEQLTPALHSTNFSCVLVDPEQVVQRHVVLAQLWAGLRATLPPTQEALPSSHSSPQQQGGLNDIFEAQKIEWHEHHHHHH
Experiment: on-yeast binding isotherm (flow cytometry), drawn summary table, column IL18BP (KD)
pKd here: minus log base 10 of the concentration, concentration in moles per litre.

{"Binder": "SEQ ID NO: 94 (human D2D IL-18 variant hD2D-5F10) (ligand, Engineered decoy-to-the-decoy variant) HFGKLESKLSVIRNLNGQVLFIDQGNRPLFADMEASPCRDNAPRTIFIISFYKDSQPRGLAVTISVKCEKISTLSCENKIISFKEMNPPDNIKDTKSDIIFFLRSVPGHDNKMQFESSSYEGYFLACEKERDLFKLILKKEDELGDRSIMFTVQNED", "Reading": 8.19}
{"Binder": "SEQ ID NO: 101 (human D2D IL-18 variant hD2D-5E08) (ligand, Engineered decoy-to-the-decoy variant) YFGKLESKLSVIRNLNGQVLFIDQGNRPLFTDMTASPCRDNAPRTIFIISFYKDSQPRGLAVTISVKCEKISTLSCENKIISFKEMNPPDNIKDTKSDIIFFLRSVPGHDNKIQFESSSYEGYFLACEKERSLFKLILKKEDELGDRSIMFTVQNED", "Reading": 8.06}
{"Binder": "SEQ ID NO: 120 (human D2D IL-18 variant hD2D-5B02) (ligand, Engineered decoy-to-the-decoy variant) YFGKLESKLSVIRNLNGQVLFIDQGNRPLFADMTSKRCRDNAPRTIFIISLYKDSQPRGFAVTISVKCEKISTLSCENKIISFKEMNPPDNIKDTKSDIIFFIRSVPGHDNKIQFESSSYEGYFLACEKERDLFKLILKKEDELGDRSIMFTVQNED", "Reading": 8.38}
{"Binder": "SEQ ID NO: 123 (human D2D IL-18 consensus hD2D-CS1) (ligand, Engineered decoy-to-the-decoy variant) YFGKLESKLSVIRNLNGQVLFIDQGNRPLFADMTDSDCRDNAPRTIFIISMYKDSQPRGMAVTISVKCEKISTLSCENKIISFKEMNPPDNIKDTKSDIIFFLRSVPGHDNKMQFESSSYEGYFLACEKERDLFKLILKKEDELGDRSIMFTVQNED", "Reading": 8.23}
{"Binder": "SEQ ID NO: 98 (human D2D IL-18 variant hD2D-5F02) (ligand, Engineered decoy-to-the-decoy variant) HFGKLESKLSVIRNLNGQVLFIDQGNRPLFGDMEASPCRDNAPRTIFIISFYKDSQPRGMAVTISVKCEKISTLSCENKIISFKEMNPPDNIKDTKSDIIFFIRSVPGADNKLQFESSSYEGYFLACEKERDLFKLILKKEDELGDRSIMFTVQNED", "Reading": 8.27}

Request the reported pKd associated with SEQ ID NO: 99 (human D2D IL-18 variant hD2D-5F01) (ligand, Engineered decoy-to-the-decoy variant) HFGKLESKLSVIRNLNGQVLFIDQGNRPLFTDMTSSDCRDKAPRTIFIISFYKDSQPRGLAVTISVKCEKISTLSCENKIISFKEMNPPDNIKDTKSDIIFFLRSVPGPDNKFQFESSSYEGYFLACEKERDLFKLILKKEDELGDRSIMFTVQNED
8.32

Request the reported pKd associated with SEQ ID NO: 125 (human D2D IL-18 consensus hD2D-CS3) (ligand, Engineered decoy-to-the-decoy variant) YFGKLESKLSVIRNLNGQVLFIDQGNRPLFADMESSDCRDNAPRTIFIISFYKDSQPRGLAVTISVKCEKISTLSCENKIISFKEMNPPDNIKDTKSDIIFFLRSVPGHDNKMQFESSSYEGYFLACEKERDLFKLILKKEDELGDRSIMFTVQNED
8.05

Request the reported pKd associated with SEQ ID NO: 124 (human D2D IL-18 consensus hD2D-CS2) (ligand, Engineered decoy-to-the-decoy variant) YFGKLESKLSVIRNLNGQVLFIDQGNRPLFADMTSSDCRDNAPRTIFIISFYKDSQPRGMAVTISVKCEKISTLSCENKIISFKEMNPPDNIKDTKSDIIFFLRSVPGHDNKMQFESSSYEGYFLACEKERDLFKLILKKEDELGDRSIMFTVQNED
8.10

The reported measurements were obtained from patent US20230277625A1.
